- test-method-notes: Ratio of Vmax to that of dThd (Vmax = 0.14)
# Vmax per entry
Respond numerically, and do not add a unit to the figure.

INSERT INTO measurements (structure_smiles, numeric_readout) VALUES
  ('CCc1cn([C@H]2C[C@H](O)[C@@H](CO)O2)c(=O)[nH]c1=O', 0.79);

input: Given the entry N#Cc1cn([C@H]2C[C@H](O)[C@@H](CO)O2)c(=O)[nH]c1=O , report its measured Vmax.
output: 0.74

input: Can you handle O=c1[nH]c(=O)n([C@H]2C[C@H](O)[C@@H](CO)O2)cc1Br next?
output: 3.51

input: Next entry: C=CCc1cn([C@H]2C[C@H](O)[C@@H](CO)O2)c(=O)[nH]c1=O
output: 0.76

input: Another: O=c1ccn([C@H]2C[C@H](O)[C@@H](CO)O2)c(=O)[nH]1
output: 0.88

input: Query C/C=C/c1cn([C@H]2C[C@H](O)[C@@H](CO)O2)c(=O)[nH]c1=O next
output: 0.57

input: Continue with O=c1[nH]c(=O)n([C@H]2C[C@H](O)[C@@H](CO)O2)cc1F
output: 3.42

input: Same thing, different compound: O=c1[nH]c(=O)n([C@H]2C[C@H](O)[C@@H](CO)O2)cc1C(F)(F)F
output: 8.53

input: Now the compound O=Cc1cn([C@H]2C[C@H](O)[C@@H](CO)O2)c(=O)[nH]c1=O
output: 1.46

input: Record: O=c1[nH]c(=O)n([C@H]2C[C@H](O)[C@@H](CO)O2)cc1CO
output: 0.6

input: # repeat for O=c1[nH]c(=O)n([C@H]2C[C@H](O)[C@@H](CO)O2)cc1I
output: 3.85

input: # iterate: O=c1[nH]c(=O)n([C@H]2C[C@H](O)[C@@H](CO)O2)cc1Cl
output: 4.2

input: Please do the same for Cc1cn([C@H]2C[C@H](O)[C@@H](CO)O2)c(=O)[nH]c1=O as well.
output: 1
